Target: HLA-A*0201 molecule (Homo sapiens, UniProt P04439, D140Y/D185E/D98H/E176V/E277Q/G131W/G231S/I119V/I121R/I166T/I218V/L300P/L318F/N151K/N90K/P208A/P217A/Q86G/Q94H/R138H/R169H/T345S)
Construct: T2A2 cells (TAP-deficient HLA-A2 molecules overexpressing, cultured in IMDM medium); host or cells: T2A2 cells
Assay: T2A2 cell-binding assay
Conditions: T2A2 cells; FI = (MFI of peptide - MFI of control without peptide)/MFI of control without peptide; anti-HLA-A2 BB7.2, flow cytometry; FI > 1 = high binding affinity
Please note: FI (fluorescence index) exactly at 0.4 is N. Only values below 0.4 get Y.

1) RMQRVLSHV [DNAH5-L4406H] :: Y
2) LLGRNSFEL [TP53-V272L] :: N
3) ALDMCVKFL [LRP1B-P3707L] :: Y
4) RMHDVTTPL [NOTCH1-G1995V] :: N

Here's the next entry for you.
Exercise: Determine whether this sequence shows FI (fluorescence index) lower than 0.4 (ties excluded): TILEELNVV [SYNE1-N4342I]
Solution: N
